experiment: isobaric coefficient of expansion; conditions: 308.15 K; 35000 kPa; Liquid; Micro DSCII
The entries below are paired with their reported isobaric coefficient of expansion.

Observe how each entry below is paired with its result.
Inquiry: Name the recorded isobaric coefficient of expansion of the compound listed here: CCCCn1cc[n+](C)c1.F[B-](F)(F)F [1-butyl-3-methylimidazolium tetrafluoroborate]
Reply text: 0.00055 1/K

Inquiry: Name the recorded isobaric coefficient of expansion of the compound listed here: CCCCn1cc[n+](C)c1.[F][Sb-]([F])([F])([F])([F])[F] [1-butyl-3-methylimidazolium hexafluoroantimonate]
Reply text: 0.000576 1/K

Inquiry: Name the recorded isobaric coefficient of expansion of the compound listed here: CCCCn1cc[n+](C)c1.COS(=O)(=O)[O-] [1-butyl-3-methylimidazolium methyl sulfate]
Reply text: 0.000512 1/K

Continuing:
Inquiry: Name the recorded isobaric coefficient of expansion of the compound listed here: CCCC[n+]1ccn(C)c1.O=S(=O)([N-]S(=O)(=O)C(F)(F)F)C(F)(F)F
Reply text: 0.000602 1/K

Inquiry: Name the recorded isobaric coefficient of expansion of the compound listed here: CCCCn1cc[n+](C)c1.O=S(=O)([O-])C(F)(F)F [1-butyl-3-methylimidazolium trifluoromethanesulfonate]
Reply text: 0.000562 1/K

====

assay: isobaric coefficient of expansion; details: 328.15 K; 25000 kPa; Liquid; Micro DSCII
The entries below are paired with their reported isobaric coefficient of expansion.

Inquiry: Name the recorded isobaric coefficient of expansion of the compound listed here: CCCCn1cc[n+](C)c1.[F][Sb-]([F])([F])([F])([F])[F] [1-butyl-3-methylimidazolium hexafluoroantimonate]
Reply text: 0.00058 1/K

Continuing:
Inquiry: Name the recorded isobaric coefficient of expansion of the compound listed here: CCCC[n+]1ccn(C)c1.O=S(=O)([N-]S(=O)(=O)C(F)(F)F)C(F)(F)F
Reply text: 0.000614 1/K

Inquiry: Name the recorded isobaric coefficient of expansion of the compound listed here: CCCCn1cc[n+](C)c1.COS(=O)(=O)[O-] [1-butyl-3-methylimidazolium methyl sulfate]
Reply text: 0.000512 1/K

Inquiry: Name the recorded isobaric coefficient of expansion of the compound listed here: CCCCn1cc[n+](C)c1.O=S(=O)([O-])C(F)(F)F [1-butyl-3-methylimidazolium trifluoromethanesulfonate]
Reply text: 0.000565 1/K

Inquiry: Name the recorded isobaric coefficient of expansion of the compound listed here: CCCCn1cc[n+](C)c1.F[B-](F)(F)F [1-butyl-3-methylimidazolium tetrafluoroborate]
Reply text: 0.000551 1/K

====

The entries below are paired with their reported isobaric coefficient of expansion.
assay: isobaric coefficient of expansion; conditions: 328.15 K; 5000 kPa; Liquid; Micro DSCII

Observe how each entry below is paired with its result.
Inquiry: Name the recorded isobaric coefficient of expansion of the molecule listed here: CCCCn1cc[n+](C)c1.F[B-](F)(F)F [1-butyl-3-methylimidazolium tetrafluoroborate]
Reply text: 0.000576 1/K

Inquiry: Name the recorded isobaric coefficient of expansion of the molecule listed here: CCCCn1cc[n+](C)c1.COS(=O)(=O)[O-] [1-butyl-3-methylimidazolium methyl sulfate]
Reply text: 0.000533 1/K

Continuing:
Inquiry: Name the recorded isobaric coefficient of expansion of the molecule listed here: CCCCn1cc[n+](C)c1.[F][Sb-]([F])([F])([F])([F])[F] [1-butyl-3-methylimidazolium hexafluoroantimonate]
Reply text: 0.000609 1/K

Inquiry: Name the recorded isobaric coefficient of expansion of the molecule listed here: CCCCn1cc[n+](C)c1.O=S(=O)([O-])C(F)(F)F [1-butyl-3-methylimidazolium trifluoromethanesulfonate]
Reply text: 0.000596 1/K

Inquiry: Name the recorded isobaric coefficient of expansion of the molecule listed here: CCCC[n+]1ccn(C)c1.O=S(=O)([N-]S(=O)(=O)C(F)(F)F)C(F)(F)F
Reply text: 0.000665 1/K

====

The entries below are paired with their reported isobaric coefficient of expansion.
assay: isobaric coefficient of expansion; conditions: 298.15 K; 15000 kPa; Liquid; Micro DSCII

Observe how each entry below is paired with its result.
Inquiry: Name the recorded isobaric coefficient of expansion of the molecule listed here: CCCCn1cc[n+](C)c1.O=S(=O)([O-])C(F)(F)F [1-butyl-3-methylimidazolium trifluoromethanesulfonate]
Reply text: 0.000595 1/K

Inquiry: Name the recorded isobaric coefficient of expansion of the molecule listed here: CCCCn1cc[n+](C)c1.F[B-](F)(F)F [1-butyl-3-methylimidazolium tetrafluoroborate]
Reply text: 0.000581 1/K

Inquiry: Name the recorded isobaric coefficient of expansion of the molecule listed here: CCCCn1cc[n+](C)c1.COS(=O)(=O)[O-] [1-butyl-3-methylimidazolium methyl sulfate]
Reply text: 0.000539 1/K

Inquiry: Name the recorded isobaric coefficient of expansion of the molecule listed here: CCCC[n+]1ccn(C)c1.O=S(=O)([N-]S(=O)(=O)C(F)(F)F)C(F)(F)F
Reply text: 0.000642 1/K

Continuing:
Inquiry: Name the recorded isobaric coefficient of expansion of the molecule listed here: CCCCn1cc[n+](C)c1.[F][Sb-]([F])([F])([F])([F])[F] [1-butyl-3-methylimidazolium hexafluoroantimonate]
Reply text: 0.000609 1/K

====

The entries below are paired with their reported isobaric coefficient of expansion.
assay: isobaric coefficient of expansion; details: 338.15 K; 30000 kPa; Liquid; Micro DSCII

Observe how each entry below is paired with its result.
Inquiry: Name the recorded isobaric coefficient of expansion of the compound listed here: CCCCn1cc[n+](C)c1.O=S(=O)([O-])C(F)(F)F [1-butyl-3-methylimidazolium trifluoromethanesulfonate]
Reply text: 0.000556 1/K

Inquiry: Name the recorded isobaric coefficient of expansion of the compound listed here: CCCC[n+]1ccn(C)c1.O=S(=O)([N-]S(=O)(=O)C(F)(F)F)C(F)(F)F
Reply text: 0.000597 1/K

Inquiry: Name the recorded isobaric coefficient of expansion of the compound listed here: CCCCn1cc[n+](C)c1.F[B-](F)(F)F [1-butyl-3-methylimidazolium tetrafluoroborate]
Reply text: 0.000543 1/K

Inquiry: Name the recorded isobaric coefficient of expansion of the compound listed here: CCCCn1cc[n+](C)c1.COS(=O)(=O)[O-] [1-butyl-3-methylimidazolium methyl sulfate]
Reply text: 0.000506 1/K

Continuing:
Inquiry: Name the recorded isobaric coefficient of expansion of the compound listed here: CCCCn1cc[n+](C)c1.[F][Sb-]([F])([F])([F])([F])[F] [1-butyl-3-methylimidazolium hexafluoroantimonate]
Reply text: 0.000569 1/K

====

The entries below are paired with their reported isobaric coefficient of expansion.
assay: isobaric coefficient of expansion; settings: 288.15 K; 50000 kPa; Liquid; Micro DSCII

Observe how each entry below is paired with its result.
Inquiry: Name the recorded isobaric coefficient of expansion of the molecule listed here: CCCCn1cc[n+](C)c1.O=S(=O)([O-])C(F)(F)F [1-butyl-3-methylimidazolium trifluoromethanesulfonate]
Reply text: 0.000558 1/K

Inquiry: Name the recorded isobaric coefficient of expansion of the molecule listed here: CCCC[n+]1ccn(C)c1.O=S(=O)([N-]S(=O)(=O)C(F)(F)F)C(F)(F)F
Reply text: 0.000594 1/K

Inquiry: Name the recorded isobaric coefficient of expansion of the molecule listed here: CCCCn1cc[n+](C)c1.[F][Sb-]([F])([F])([F])([F])[F] [1-butyl-3-methylimidazolium hexafluoroantimonate]
Reply text: 0.000573 1/K

Inquiry: Name the recorded isobaric coefficient of expansion of the molecule listed here: CCCCn1cc[n+](C)c1.F[B-](F)(F)F [1-butyl-3-methylimidazolium tetrafluoroborate]
Reply text: 0.000553 1/K

Continuing:
Inquiry: Name the recorded isobaric coefficient of expansion of the molecule listed here: CCCCn1cc[n+](C)c1.COS(=O)(=O)[O-] [1-butyl-3-methylimidazolium methyl sulfate]
Reply text: 0.000513 1/K

====

test: isobaric coefficient of expansion; details: 328.15 K; 35000 kPa; Liquid; Micro DSCII
The entries below are paired with their reported isobaric coefficient of expansion.

Inquiry: Name the recorded isobaric coefficient of expansion of the molecule listed here: CCCCn1cc[n+](C)c1.[F][Sb-]([F])([F])([F])([F])[F] [1-butyl-3-methylimidazolium hexafluoroantimonate]
Reply text: 0.000566 1/K

Inquiry: Name the recorded isobaric coefficient of expansion of the molecule listed here: CCCC[n+]1ccn(C)c1.O=S(=O)([N-]S(=O)(=O)C(F)(F)F)C(F)(F)F
Reply text: 0.000595 1/K

Inquiry: Name the recorded isobaric coefficient of expansion of the molecule listed here: CCCCn1cc[n+](C)c1.COS(=O)(=O)[O-] [1-butyl-3-methylimidazolium methyl sulfate]
Reply text: 0.000503 1/K

Inquiry: Name the recorded isobaric coefficient of expansion of the molecule listed here: CCCCn1cc[n+](C)c1.F[B-](F)(F)F [1-butyl-3-methylimidazolium tetrafluoroborate]
Reply text: 0.000541 1/K

Next:
Inquiry: Name the recorded isobaric coefficient of expansion of the molecule listed here: CCCCn1cc[n+](C)c1.O=S(=O)([O-])C(F)(F)F [1-butyl-3-methylimidazolium trifluoromethanesulfonate]
Reply text: 0.000552 1/K
